Attribution: patent US20230095569A1

Molecular target: Rhesus monkey Claudine18.2 (Rhesus monkey) (UniProt F6YQY3)
Assay: FACS on CHOK1-rh18.2 cells
Measurement type: FACS MFI
Output spec: single numeric token, no unit.

Ab03 (antibody, V domains shown) VH: EVQLQQSGPELVKPGASVKIACKASGYTFTDYNMDWVKQSHGKSLEWIGNINSYYGGTIYNQKFKGKATLTVDKSSSTAYMVLRSLTSEDNAVYYCARPHLGNALDYWGQGTSITVSS VL: DIVVTQSPSSLTVTPGEKVTMSCKSSQSLFNSGNQKNYLSWYQQNPGQPPKLLIYWASTRQSGVPDRFTGSGSGTDFTLTISSVQAEDLAGYYCQNDYIFPLTFGAGTKLELK :: 1430

IN: Could you tell me which FACS MFI is on file for Ab38 (antibody, V domains shown) VH: QIQLVQSGPELKKPGETVKISCKASGYTFTNYGMSWVKQAPGKGLKWMGWINTYSGVPTYADDFKGRFVFSLEASASTAYLQINNLKNEDAATYFCSRWSGPDPLEDHWGQGTTLTVSS VL: QIVLTQSPAIMSASPGEKVTMTCTASLSLNYIHWYRQRSGTSPKRWIYDTSKLASGVPSRFSGSGSGTSYSLTISSMEAEDAATYYCQQWSSNPWTFGGGTKLEIK ?
OUT: 15600

IN: For Ab27 (antibody, V domains shown) VH: QVQLQQSGAELVRPGSSVKISCKASGYAFSNYWMNWVKQRPGQGLEWIGQIYPGNGDTNYNGKFKGKATLTADKSSTTAYIQLSSLTSEDSAVYFCTRIYYGNSFAYWGQGTLVTVS VL: DIVMTQSPSSLTVTAGERVTMSCKSSQSLLNSGNQKNYLTWYQQKPGQPPKLLIYWASTRESGVPDRFTGSGSGTDFTLTISRVQAQDLAVYYCQNDYYYPLTFGAGTKLELK , what is its reported FACS MFI?
OUT: 9240
